# credit: paper PMC6392469

# Target: T1, C1-Ten/Tensin2 SH2 domain K1142Q/K1155Q/K1157Q (UniProt Q63HR2 1120-1253, K1142Q | K1155Q | K1157Q)
# T1 sequence (looked up): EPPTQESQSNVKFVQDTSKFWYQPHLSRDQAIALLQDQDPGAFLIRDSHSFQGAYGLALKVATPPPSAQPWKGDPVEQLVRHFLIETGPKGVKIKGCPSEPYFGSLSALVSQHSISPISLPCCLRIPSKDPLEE
# Assay Text: fluorescence polarisation
Non-standard residues stand in square brackets, D forms with d. No end group written: not given here. fluorescein = fluorescein-6-aminohexanoyl label; pY = N[C@@H](Cc1ccc(OP(=O)(O)O)cc1)C(=O)O; Ahx = NCCCCCC(=O)O
Measured Property: pKd
Answer as the number alone; pKd is minus log10 of concentration in mol/L.

**Q:** Entry under review: {fluorescein-Ahx}-NE[pY]DNV [F-Ahx-NEpYDNV, fluorescein-6-aminohexanoyl-labeled pY-containing peptide] . Reported pKd?
**A:** 5.44
